Hello, the source for this data is paper PMC4507497, in case you need it.

System: Frog DOR
Format: cell-based, Rana pipiens
TEST PARAMETERS: Table 2; HEK 293T cells; NA = not active
No end group written: not given here.
MEASUREMENT KIND: EC50 (µM)
Just the number please, in µM, no unit attached.

Using the record for YGGFLRKYPK [α-Neoendorphin] , state its measured EC50.
1.6

* * *

EXPERIMENTAL TARGET: Human DOR (Homo sapiens, UniProt P41143)
Sequence (P41143 whole entry): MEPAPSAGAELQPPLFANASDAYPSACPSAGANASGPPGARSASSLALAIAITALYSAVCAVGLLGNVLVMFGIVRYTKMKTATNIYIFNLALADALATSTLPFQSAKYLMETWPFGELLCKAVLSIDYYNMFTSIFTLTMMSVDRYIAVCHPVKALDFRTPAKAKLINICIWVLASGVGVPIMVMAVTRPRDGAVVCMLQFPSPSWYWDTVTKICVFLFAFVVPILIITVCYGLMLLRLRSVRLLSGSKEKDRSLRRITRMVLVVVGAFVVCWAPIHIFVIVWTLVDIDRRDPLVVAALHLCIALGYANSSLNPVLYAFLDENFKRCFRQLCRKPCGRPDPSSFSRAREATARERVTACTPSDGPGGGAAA
TEST PROTOCOL: cell-based
TEST PARAMETERS: EC50
No end group written: not given here.
MEASUREMENT KIND: pEC50
Bear in mind: pEC50 is minus log10 of a mol/L concentration; give just that figure.

Supply measured pEC50 of YGGFLRKYPK [α-Neoendorphin] in your reply.
5.80

* * *

EXPERIMENTAL TARGET: h-rpMOR-E3h
TEST PROTOCOL: Competition binding with radiolabeled diprenorphine, h-rpMOR-E3h
TEST PARAMETERS: Table 3, [3H]-diprenorphine competition
MEASUREMENT KIND: pKi
Would you please state pKi, meaning minus log10 of the concentration in mol/L, as a bare number?

Item C[C@@H](NC(=O)[C@@H](N)Cc1ccc(O)cc1)C(=O)NCC(=O)N(C)[C@@H](Cc1ccccc1)C(=O)NCCO [DAMGO, [D-Ala^2,N-MePhe^4,Gly-ol]-enkephalin] : provide pKi
6.92

* * *

EXPERIMENTAL TARGET: rpMOR
TEST PROTOCOL: Competition binding with radiolabeled diprenorphine, rpMOR
TEST PARAMETERS: Table 3, [3H]-diprenorphine competition
MEASUREMENT KIND: Ki (nM)
Provide only the numeric value, understood in nM.

>  <COMPOUND>
C[C@@H](NC(=O)[C@@H](N)Cc1ccc(O)cc1)C(=O)N[C@@H](Cc1ccccc1)C(=O)NCC(=O)N[C@@H](Cc1ccc(O)cc1)C(=O)N1CCC[C@H]1C(=O)N[C@@H](CO)C(N)=O [Dermorphin]

>  <Ki (nM)>
1640

$$$$

Field: next compound
Hello, please tell me recorded Ki for this one: C[C@@H](NC(=O)[C@@H](N)Cc1ccc(O)cc1)C(=O)NCC(=O)N(C)[C@@H](Cc1ccccc1)C(=O)NCCO [DAMGO, [D-Ala^2,N-MePhe^4,Gly-ol]-enkephalin]
160

* * *

EXPERIMENTAL TARGET: Human KOR (Homo sapiens)
Sequence (P41145 whole entry): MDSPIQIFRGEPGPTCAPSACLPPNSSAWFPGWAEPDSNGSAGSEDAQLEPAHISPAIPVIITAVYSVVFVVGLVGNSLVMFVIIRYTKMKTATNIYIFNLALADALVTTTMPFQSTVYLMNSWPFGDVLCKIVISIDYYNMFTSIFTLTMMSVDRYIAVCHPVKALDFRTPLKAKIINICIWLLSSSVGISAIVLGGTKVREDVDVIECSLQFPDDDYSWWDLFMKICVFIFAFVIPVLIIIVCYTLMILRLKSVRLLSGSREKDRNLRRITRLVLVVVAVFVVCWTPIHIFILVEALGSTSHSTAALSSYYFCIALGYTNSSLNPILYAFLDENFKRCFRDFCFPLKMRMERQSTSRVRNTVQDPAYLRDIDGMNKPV
TEST PROTOCOL: cell-based
TEST PARAMETERS: log EC50 ±SEM
No end group written: not given here.
MEASUREMENT KIND: pEC50
Please report pEC50 as the negative decimal logarithm of the molar concentration, giving only the number.

Entry YGGFLRKYPK [α-Neoendorphin] needs its pEC50 filled in; supply it.
8.00

* * *

Tested on: h-rpMOR-E2h (h-rpMOR-EL2h)
TEST PROTOCOL: Inhibition of isoproterenol-stimulated cAMP response, chimera h-rpMOR-E2h
Type: cell-based, human / Rana pipiens
TEST PARAMETERS: Table 3; h-rpMOR-E2h; HEK 293T cells
Listing of recorded pEC50 by entry.
Here pEC50 is given on a logarithmic scale as minus log10 of the concentration in mol/L.

Worked set:
>  <MOLECULE>
NC(=O)[C@H](Cc1ccccc1)NC(=O)[C@H](Cc1c[nH]c2ccccc12)NC(=O)[C@@H]1CCCN1C(=O)[C@@H](N)Cc1ccc(O)cc1 [Endomorphin 1]

>  <MEASUREMENT KIND>
pEC50

>  <NUMERIC READOUT>
7.02

$$$$
>  <MOLECULE>
C[C@@H](NC(=O)[C@@H](N)Cc1ccc(O)cc1)C(=O)NCC(=O)N(C)[C@@H](Cc1ccccc1)C(=O)NCCO [DAMGO, [D-Ala^2,N-MePhe^4,Gly-ol]-enkephalin]

>  <MEASUREMENT KIND>
pEC50

>  <NUMERIC READOUT>
7.09

$$$$
>  <MOLECULE>
C[C@@H](NC(=O)[C@@H](N)Cc1ccc(O)cc1)C(=O)N[C@@H](Cc1ccccc1)C(=O)NCC(=O)N[C@@H](Cc1ccc(O)cc1)C(=O)N1CCC[C@H]1C(=O)N[C@@H](CO)C(N)=O

>  <MEASUREMENT KIND>
pEC50

>  <NUMERIC READOUT>
7.40

$$$$

Next molecule, pEC50 to be filled in.
Report pEC50 for NC(=O)[C@H](Cc1ccccc1)NC(=O)[C@H](Cc1ccccc1)NC(=O)[C@@H]1CCCN1C(=O)[C@@H](N)Cc1ccc(O)cc1 [Endomorphin 2]
6.72
